Tested on: Leishmania donovani
Assay: Antileishmanial activity against Leishmania donovani promastigotes after 72 hrs by almar blue assay
Assay type: functional, organism-based
For each record, write down the corresponding IC50.
Record the value in µg/mL, omitting the unit from your answer.

What value of IC50 on Leishmania donovani does N=C(N)c1ccc(OCCCCCOc2ccc(C(=N)N)cc2)cc1 have? 0.9

Repeat with C[C@@H]1[C@H](O)[C@@H](C)/C=C/C=C/C=C/C=C/C=C/C=C/C=C/[C@H](O[C@@H]2O[C@H](C)[C@@H](O)[C@H](N)[C@@H]2O)C[C@@H]2O[C@](O)(C[C@@H](O)C[C@@H](O)[C@H](O)CC[C@@H](O)C[C@@H](O)CC(=O)O[C@H]1C)C[C@H](O)[C@H]2C(=O)O 0.4

Repeat with COc1cccc2c1[nH]c1c(C3=C[C@@]4(O)CC/C=C\CCCCN5CC[C@@H]3[C@]3(C[C@@H]6/C=C\CCCCN6[C@H]34)C5)nccc12 5

Repeat with CC(=O)Oc1cccc2c1[nH]c1c(C3=C[C@@]4(OC(C)=O)CC/C=C\CCCCN5CC[C@@H]3[C@]3(C[C@@H]6/C=C\CCCCN6[C@H]34)C5)nccc12 16

Repeat with CC(=O)Oc1cccc2c1[nH]c1c(C3=C[C@@]4(O)CC/C=C\CCCCN5CC[C@@H]3[C@]3(C[C@@H]6/C=C\CCCCN6[C@H]34)C5)nccc12 3.4

---

Assay: Cytotoxicity against african green monkey Vero cells after 48 hrs by neutral red assay
Format: cell-based
Conditions: chlorocebus sabaeus, read-out: TC50
For each record, write down the corresponding CC50 at 48 h.
Record the value in µg/mL, omitting the unit from your answer.

Any idea what CC50 at 48 h was measured for CC(=O)Oc1cccc2c1[nH]c1c(C3=C[C@@]4(O)CC/C=C\CCCCN5CC[C@@H]3[C@]3(C[C@@H]6/C=C\CCCCN6[C@H]34)C5)nccc12 ? 370

Repeat with O[C@]12C=C(c3nccc4c3[nH]c3ccccc34)[C@@H]3CCN(CCCC/C=C\CC1)C[C@@]31C[C@@H]3/C=C\CCCCN3[C@H]12 680

Repeat with COc1cccc2c1[nH]c1c(C3=C[C@@]4(O)CC/C=C\CCCCN5CC[C@@H]3[C@]3(C[C@@H]6/C=C\CCCCN6[C@H]34)C5)nccc12 980

---

For each record, write down the corresponding MIC.
Test system: Cryptococcus neoformans
Assay: Antimicrobial activity against Cryptococcus neoformans ATCC 90113
Type: functional, organism-based
Record the value in µg/mL, omitting the unit from your answer.

Any idea what MIC was measured for CC(=O)Oc1cccc2c1[nH]c1c(C3=C[C@@]4(O)CC/C=C\CCCCN5CC[C@@H]3[C@]3(C[C@@H]6/C=C\CCCCN6[C@H]34)C5)nccc12 ? 2.5

Repeat with CC(=O)Oc1cccc2c1[nH]c1c(C3=C[C@@]4(OC(C)=O)CC/C=C\CCCCN5CC[C@@H]3[C@]3(C[C@@H]6/C=C\CCCCN6[C@H]34)C5)nccc12 10

Repeat with O[C@]12C=C(c3nccc4c3[nH]c3ccccc34)[C@@H]3CCN(CCCC/C=C\CC1)C[C@@]31C[C@@H]3/C=C\CCCCN3[C@H]12 10

Repeat with C[C@@H]1[C@H](O)[C@@H](C)/C=C/C=C/C=C/C=C/C=C/C=C/C=C/[C@H](O[C@@H]2O[C@H](C)[C@@H](O)[C@H](N)[C@@H]2O)C[C@@H]2O[C@](O)(C[C@@H](O)C[C@@H](O)[C@H](O)CC[C@@H](O)C[C@@H](O)CC(=O)O[C@H]1C)C[C@H](O)[C@H]2C(=O)O 2.5

---

For each record, write down the corresponding MIC.
System: Candida albicans
Experiment: Antimicrobial activity against Candida albicans ATCC 90028
Assay type: functional, organism-based
Record the value in µg/mL, omitting the unit from your answer.

Any idea what MIC was measured for C[C@@H]1[C@H](O)[C@@H](C)/C=C/C=C/C=C/C=C/C=C/C=C/C=C/[C@H](O[C@@H]2O[C@H](C)[C@@H](O)[C@H](N)[C@@H]2O)C[C@@H]2O[C@](O)(C[C@@H](O)C[C@@H](O)[C@H](O)CC[C@@H](O)C[C@@H](O)CC(=O)O[C@H]1C)C[C@H](O)[C@H]2C(=O)O ? 0.63

Repeat with Oc1cccc2c1[nH]c1c(C3=C[C@@]4(O)CC/C=C\CCCCN5CC[C@@H]3[C@]3(C[C@@H]6/C=C\CCCCN6[C@H]34)C5)nccc12 5

Repeat with CC(=O)Oc1cccc2c1[nH]c1c(C3=C[C@@]4(O)CC/C=C\CCCCN5CC[C@@H]3[C@]3(C[C@@H]6/C=C\CCCCN6[C@H]34)C5)nccc12 2.5

Repeat with COc1cccc2c1[nH]c1c(C3=C[C@@]4(O)CC/C=C\CCCCN5CC[C@@H]3[C@]3(C[C@@H]6/C=C\CCCCN6[C@H]34)C5)nccc12 10
